- method: Plasma concentration of RAN given in diet to rats
- Type: in vivo
- assaySetup: male, Sprague-Dawley, oral, 0.25 % weight of RAN over weight of chow, low dose RAN, 0.25% in chow, rat, read-out: plasma concentrations
observedProperty: concentration at 28 days

Query: For COc1ccccc1OCC(O)CN1CCN(CC(=O)Nc2c(C)cccc2C)CC1 (racemic) , what is its reported concentration at 28 days?
Response: 1000 to 2000 nM

FYI, the data here is from patent US20120004188A1.
